Recorded values, source paper PMC9088073.

Test system: SARS-CoV-2
Assay Protocol: microbe, parasite or virus in culture
Format: cell-based
Measurement Context: Severe acute respiratory syndrome coronavirus 2; read-out: Anti-SARS-CoV-2 activity EC50, primary screening
pEC50: −log10 of the molar value.
Reported Property: pEC50

{"Sample Smiles": "CCCOc1ccc(-c2cc(OCCN(CC)CC)c3ccccc3n2)cc1", "Measured Number": 5.22}
{"Sample Smiles": "COc1cc(O)c2c(=O)cc(-c3ccc(OCCCN4CCN(C)CC4)c(N)c3)n(C)c2c1", "Measured Number": 5.00}

---

Target Of Assay: SARS-CoV-2 nsp12 RdRp (Severe acute respiratory syndrome coronavirus 2)
Assay Protocol: SARS-CoV-2 nsp12 RdRp activity, fluorescent-based assay
Assay type: biochemical
Measurement Context: in the presence of the highest concentration of tested compound (30 μM); read-out: RdRp percentage of control

{"Sample Smiles": "CCCOc1ccc(-c2cc(OCCN3CCN(Cc4ccccc4)CC3)c3c(OC)cc(OC)cc3n2)cc1", "Target Of Assay": "SARS-CoV-2 nsp12 RdRp (Severe acute respiratory syndrome coronavirus 2)", "remaining activity at 30 µM, %": 100}
{"Sample Smiles": "CCCOc1ccc(-c2cc(OCCN3CCCCC3)c3c(OC)ccc(OC)c3n2)cc1", "Target Of Assay": "SARS-CoV-2 nsp12 RdRp (Severe acute respiratory syndrome coronavirus 2)", "remaining activity at 30 µM, %": 100}
{"Sample Smiles": "CCCOc1ccc(-c2cc(OCCN3CCCC3)c3cc(OC)cc(OC)c3n2)cc1", "Target Of Assay": "SARS-CoV-2 nsp12 RdRp (Severe acute respiratory syndrome coronavirus 2)", "remaining activity at 30 µM, %": 100}
{"Sample Smiles": "CCCOc1ccc(-c2cc(OCCN3CCc4cc(OC)c(OC)cc4C3)c3c(OC)cc(OC)cc3n2)cc1", "Target Of Assay": "SARS-CoV-2 nsp12 RdRp (Severe acute respiratory syndrome coronavirus 2)", "remaining activity at 30 µM, %": 62}
